biological target: acetylcholine receptor; assay: SPR, peptide at 10 uM on acetylcholine receptor

- binder: "RYMGR [5mer-951]"
  Binding affinity (RU): 18
- binder: "KMTGK [5mer-971]"
  Binding affinity (RU): 12
- binder: "RPHFK [5mer-688]"
  Binding affinity (RU): 31
- binder: "RFSDK [5mer-689]"
  Binding affinity (RU): 20
- binder: "RYPHR [5mer-997]"
  Binding affinity (RU): 30
- binder: "RAEIK [5mer-690]"
  Binding affinity (RU): 12
- binder: "RTMFR [5mer-676]"
  Binding affinity (RU): 18
- binder: "KKPDR [5mer-695]"
  Binding affinity (RU): 26
- binder: "RMEIR [5mer-687]"
  Binding affinity (RU): 22
- binder: "RFTER [5mer-680]"
  Binding affinity (RU): 21
- binder: "KYMGR [5mer-678]"
  Binding affinity (RU): 23
- binder: "RAHWR [5mer-987]"
  Binding affinity (RU): 22
- binder: "KTTWK [5mer-653]"
  Binding affinity (RU): 16
- binder: "RPHAK [5mer-668]"
  Binding affinity (RU): 27
- binder: "KPNVK [5mer-682]"
  Binding affinity (RU): 31
- binder: "RHMMR [5mer-974]"
  Binding affinity (RU): 26
- binder: "KNMIR [5mer-977]"
  Binding affinity (RU): 16

src = patent US20250011363A1
